System: Staphylococcus aureus-SMITH (GC 4543)
Experiment: acute lethal infection in mice
Type: in vivo
Settings: acute lethal infection, female CD-1 mice, intraperitoneal challenge, intravenous 30 min. after infection, 7 day survival
Experimental: Methods for in Vivo Antibacterial Evaluation The therapeutic effects of glycopeptide antibiotics of Formula I are determined against acute lethal infections with S. aureus (strain Smith), a penicillin resistant strain of S. pneumoniae (strain GC 1894), and a vancomycin resistant strain of E. fecalis (strain GC 6189 and GC 2246). […]
// NB: equality with 1 mg/kg counts as F; only median effective dose (ED50), Staphylococcus aureus-SMITH (GC 4543) strictly below is T

**Q:** Does the reported median effective dose (ED50), Staphylococcus aureus-SMITH (GC 4543) of the following compound sit strictly below 1 mg/kg? CC(C)CC(=O)OC1C(O)C(CO)OC(OC2C(CO)OC(Oc3ccc(CC4NC(=O)C(C(C)c5ccc(Cl)cc5)NC(=O)CNC(=O)C(CO)NC(=O)C(C(O)C5CNC(=N)N5C5OC(CO)C(O)C(O)C5O)NC(=O)C(C(O)C5CNC(=N)N5)NC4=O)cc3)C(O)C2O)C1O (centres unmarked) [Example 262b]
**A:** F

**Q:** Hello, I'm reviewing records and need to know if median effective dose (ED50), Staphylococcus aureus-SMITH (GC 4543) of CC(c1ccccc1)C1NC(=O)CNC(=O)C(CO)NC(=O)C(C(O)C2CN(Cc3ccc4ccccc4c3)C(=N)N2C2OC(CO)C(O)C(O)C2O)NC(=O)C(C(O)C2CNC(=N)N2)NC(=O)C(Cc2ccc(OC3OC(CO)C(OC4OC5COC6(OC5C(O)C4O)C4CC5CC(C4)CC6C5)C(O)C3O)cc2)NC1=O (centres unmarked) is below 1 mg/kg. Could you check?
**A:** F

**Q:** Would you kindly verify if median effective dose (ED50), Staphylococcus aureus-SMITH (GC 4543) of CCCC(CCC)C(=O)OCC1OC(OC2C(CO)OC(Oc3ccc(CC4NC(=O)C(C(C)c5ccccc5)NC(=O)CNC(=O)C(CO)NC(=O)C(C(O)C5CNC(=N)N5C5OC(CO)C(O)C(O)C5O)NC(=O)C(C(O)C5CNC(=N)N5)NC4=O)cc3)C(O)C2O)C(O)C(O)C1O (centres unmarked) [Example 99c] is strictly less than 1 mg/kg?
**A:** T

**Q:** Regarding COc1ccc2cc(COCC3OC(OC4C(CO)OC(Oc5ccc(CC6NC(=O)C(C(C)c7ccccc7)NC(=O)CNC(=O)C(CO)NC(=O)C(C(O)C7CNC(=N)N7C7OC(CO)C(O)C(O)C7O)NC(=O)C(C(O)C7CNC(=N)N7)NC6=O)cc5)C(O)C4O)C(O)C(O)C3O)ccc2c1 (centres unmarked) , kindly confirm whether its median effective dose (ED50), Staphylococcus aureus-SMITH (GC 4543) is beneath 1 mg/kg.
**A:** T

**Q:** Please determine if Cc1ccc(Oc2cccc(-c3nc4cc(CC5NC(=O)C(C(C)c6ccccc6)NC(=O)CNC(=O)C(CO)NC(=O)C(C(O)C6CNC(=N)N6C6OC(CO)C(O)C(O)C6O)NC(=O)C(C(O)C6CNC(=N)N6)NC5=O)ccc4o3)c2)cc1 (centres unmarked) is below 1 mg/kg in terms of median effective dose (ED50), Staphylococcus aureus-SMITH (GC 4543).
**A:** F
